- subject.of.test: T1, Claudin 18.2 (CLDN18.2), expressed on CHOS-CLDN 18.2 / HEK293-CLDN 18.2 / HCC827-CLDN 18.2 cells (human, UniProt P56856-2 1-261)
- T1 construct: whole, on cells; The species is not repeated for the CHOS-CLDN 18.2 cells; also called claudin-18A2
- measurement.description: FACS, CHOS-CLDN18.2 cells
assay.readout: max

binder | measurement
QP024025 (antibody, human IgG1, V domains shown, also called IMAB362; 175D10(IMAB362)) VH: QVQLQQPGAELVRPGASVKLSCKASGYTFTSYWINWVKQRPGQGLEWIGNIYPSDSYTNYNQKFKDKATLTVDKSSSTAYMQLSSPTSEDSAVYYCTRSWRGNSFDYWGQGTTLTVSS VL: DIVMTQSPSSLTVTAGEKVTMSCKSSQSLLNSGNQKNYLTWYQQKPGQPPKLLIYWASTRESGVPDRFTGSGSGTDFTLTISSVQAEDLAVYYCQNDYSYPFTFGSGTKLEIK | 88600

Origin of the recorded values: patent US20230183352A1
